- Target under test: T1, Extracellular domain of cyno PD1 (cPD1-ECD) (Macaca fascicularis (cynomolgus))
- T1 construct: Expressed with a hexahistidine tag or as Fc fusion; also called cynoPD1-ECD; cynoPD-1-ECD
- T1 chain: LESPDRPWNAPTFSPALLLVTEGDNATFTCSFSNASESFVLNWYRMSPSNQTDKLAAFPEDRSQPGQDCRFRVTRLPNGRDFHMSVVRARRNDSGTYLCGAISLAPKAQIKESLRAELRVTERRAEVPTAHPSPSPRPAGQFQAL
- Assay protocol: SPR ProteOn, cynoPD1-ECD; RANGE high replicate
Quantity name: Kd (nM)
Provide the reading as a plain figure in nM.

Illustrative cases are given below, each with its answer.
[
  {
    "Binder": "PD1B149 (antibody, human IgG2, kappa, V domains shown, IgG2sigma/kappa; VH 41, VL 50; also called PD1H24/PD1L128) VH: QVQLVQSGAEVKKPGSSVKVSCKASGGTFSSYAISWVRQAPGQGLEWMGGIIPIFGTANYAQKFQGRVTITADESTSTAYMELSSLRSEDTAVYYCARPGLAAAYDTGNLDYWGQGTLVTVSS VL: EIVLTQSPATLSLSPGERATLSCRASQSVRNYLAWYQQKPGQAPRLLIHDASNRATGIPARFSGSGSGTDFTLTISSLEPEDFAVYYCQQRNYWPLTFGQGTKVEIKR",
    "Assay value": 11.4
  },
  {
    "Binder": "PD1B177 (antibody, V domains shown, Tested as IgG2sigma; also called PD1H164/PH9L3) VH: QVQLVQSGAEVKKPGSSVKVSCKASGGTFSDYVISWVRQAPGQGLEWMGGIIPIYGTANYAQKFQGRVTITADESTSTAYMELSSLRSEDTAVYYCARGTLDRTGHLDYWGQGTLVTVSS VL: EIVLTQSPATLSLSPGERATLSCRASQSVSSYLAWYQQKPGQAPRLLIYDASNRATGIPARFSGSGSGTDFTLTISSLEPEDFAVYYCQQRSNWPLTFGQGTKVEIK",
    "Assay value": 6.9
  },
  {
    "Binder": "PD1B192 (antibody, human IgG2, kappa, V domains shown, IgG2sigma/kappa; VH 43, VL 57; also called PD1H3/PD1L133) VH: QVQLVQSGAEVKKPGSSVKVSCKASGGTFSSYAISWVRQAPGQGLEWMGGIIPIFGTANYAQKFQGRVTITADESTSTAYMELSSLRSEDTAVYYCARPGLAAAYDTGSLDYWGQGTLVTVSS VL: EIVLTQSPATLSLSPGERATLSCRASQSVDSYLAWYQQKPGQAPRLLIHDASNRATGIPARFSGSGSGTDFTLTISSLEPEDFAVYYCQQRNYWPLTFGQGTKVEIKR",
    "Assay value": 18
  },
  {
    "Binder": "PD1B70 (antibody, V domains shown, Tested as IgG2sigma/kappa; also called PD1H107/PH9L3) VH: QVQLVQSGAEVKKPGSSVKVSCKASGGTFSSYAISWVRQAPGQGLEWMGGIIPIFGTANYAQKFQGRVTITADESTSTAYMELSSLRSEDTAVYYCARGYVRATGMLDYWGQGTLVTVSS VL: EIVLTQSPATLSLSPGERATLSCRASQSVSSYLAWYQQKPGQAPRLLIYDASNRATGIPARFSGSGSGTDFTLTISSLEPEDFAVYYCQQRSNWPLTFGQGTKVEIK",
    "Assay value": 138
  }
]

// switching to the query binder
Please give the measured Kd for this binder: PD1B184 (antibody, human IgG2, kappa, V domains shown, IgG2sigma/kappa; VH 43, VL 50; also called PD1H3/PD1L128) VH: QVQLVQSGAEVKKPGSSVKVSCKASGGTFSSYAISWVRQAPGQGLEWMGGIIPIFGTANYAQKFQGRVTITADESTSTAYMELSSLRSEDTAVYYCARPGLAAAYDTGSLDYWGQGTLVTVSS VL: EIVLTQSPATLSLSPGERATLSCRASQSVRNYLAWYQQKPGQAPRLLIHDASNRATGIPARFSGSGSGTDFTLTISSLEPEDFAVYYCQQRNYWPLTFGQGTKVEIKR
14.1

src = patent US20210277110A1
